Every entry's value here was drawn from ChEMBL document CHEMBL3751794.

- assayNotes: Permeability across MDCK cells
- Format: ADME, cell-based, Canis lupus familiaris
- testConditions: dog, read-out: permeability
propertyLabel: Papp (×10⁻⁶ cm/s)
Express the result in ×10⁻⁶ cm/s but write the number alone.

IN: Value lookup for Papp; key = O=S(=O)(c1cc(Cl)c(F)c(Cl)c1)N1[C@H](CO)CC[C@@H]1c1ccc(F)cc1
OUT: 5.7

---

- assayTarget: Transient receptor potential cation channel subfamily A member 1 (Homo sapiens, UniProt O75762)
- Sequence (O75762 whole entry): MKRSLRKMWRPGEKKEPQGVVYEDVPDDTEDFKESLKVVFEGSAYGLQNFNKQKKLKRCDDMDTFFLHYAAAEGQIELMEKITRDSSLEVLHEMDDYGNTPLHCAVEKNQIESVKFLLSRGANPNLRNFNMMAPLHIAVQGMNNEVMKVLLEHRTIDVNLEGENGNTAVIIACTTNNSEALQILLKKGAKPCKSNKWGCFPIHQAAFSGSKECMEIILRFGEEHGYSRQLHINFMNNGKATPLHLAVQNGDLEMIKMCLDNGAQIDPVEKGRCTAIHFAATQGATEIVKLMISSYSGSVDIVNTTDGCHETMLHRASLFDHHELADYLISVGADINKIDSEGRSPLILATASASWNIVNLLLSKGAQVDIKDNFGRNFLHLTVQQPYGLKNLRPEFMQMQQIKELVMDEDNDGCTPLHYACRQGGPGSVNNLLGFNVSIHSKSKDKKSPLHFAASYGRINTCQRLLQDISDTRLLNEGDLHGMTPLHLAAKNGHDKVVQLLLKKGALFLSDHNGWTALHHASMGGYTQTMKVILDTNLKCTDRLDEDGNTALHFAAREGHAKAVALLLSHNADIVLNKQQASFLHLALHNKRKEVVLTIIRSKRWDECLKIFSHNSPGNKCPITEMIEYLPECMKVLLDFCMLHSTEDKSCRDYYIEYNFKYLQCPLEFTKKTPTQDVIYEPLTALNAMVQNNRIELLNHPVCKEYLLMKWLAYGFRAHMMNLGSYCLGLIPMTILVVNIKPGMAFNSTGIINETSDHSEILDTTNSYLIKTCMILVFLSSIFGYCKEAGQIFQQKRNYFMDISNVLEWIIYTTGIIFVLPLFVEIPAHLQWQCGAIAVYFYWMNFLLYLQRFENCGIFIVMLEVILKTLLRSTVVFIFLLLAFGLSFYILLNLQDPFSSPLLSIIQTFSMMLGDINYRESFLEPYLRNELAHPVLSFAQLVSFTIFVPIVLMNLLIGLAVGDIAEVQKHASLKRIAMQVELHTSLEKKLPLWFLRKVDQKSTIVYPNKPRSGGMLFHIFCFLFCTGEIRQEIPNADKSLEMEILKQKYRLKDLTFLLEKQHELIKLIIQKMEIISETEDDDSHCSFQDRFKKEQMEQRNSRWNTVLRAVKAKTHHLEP
pIC50 by entry:
For clarity, pIC50 is expressed as the negative log10 of concentration in mol/L.

Before answering, review these 2 worked examples.
O=S(=O)(c1ccc(F)cc1)N1CCC[C@@H]1c1ccc(F)cc1    5.18
Cc1cc(S(=O)(=O)N2[C@H](CO)CC[C@@H]2c2ccc(F)cc2)ccc1F    6.72

IN: Value lookup for pIC50; key = Cc1cc(CN2[C@H](CO)CC[C@@H]2c2ccc(F)cc2)cc(C)c1F
OUT: 5.17
